# SYSTEM NAME: T1, UNK ZnF1-3 (human, UniProt Q9C0B0 31-174)
# T1 sequence: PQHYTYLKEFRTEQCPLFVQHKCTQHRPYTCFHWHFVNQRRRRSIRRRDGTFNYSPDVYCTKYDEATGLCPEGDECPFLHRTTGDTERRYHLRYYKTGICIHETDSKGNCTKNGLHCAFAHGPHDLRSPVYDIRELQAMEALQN
# TEST DETAILS: nsRBNS (natural sequence RNA bind-n-seq); RBNS binding buffer (assumed for nsRBNS): 25 mM Tris pH 7.5, 150 mM KCl, 3 mM MgCl2, 0.01% Triton X-100, 500 ug/ml BSA, 20 U/ml SUPERase-In, 4 C; UNK is unkempt and MSI1 is Musashi-1; names of the RNAs are library labels; protein concentration not given here; high values mean tight binding
Over roughly 24,000 sequences, “enrichment r” has its median near 0.99; the highest 2% begin near 3.7. This is one part of a sample in which the highest values are shown more often than they occur.
Parameter: binding signal. Scope: all listed entries.

{"BINDER": "chrX:16864032:16864033:-_ENSG00000102054_ENST00000404022|hu_hu|FALSE|FALSE (ssRNA) RNA: GGGAGUUCUACAGUCCGACGAUCCAUGAUGUUAUCCUCAGACACUGAGCAAAUGACCCAAGGCUCAUUGGGGUUCCAGCUAAAAUCUGAAAUCUUAGCAGUGUGUCCUCCAUGAAUAAACAGGAGUUCUGGAGGCCCAUCUUCCAACAGAGGAUUGAGCAUCA", "binding signal, enrichment R": 1.18}
{"BINDER": "chr4:57314706:57314707:+_ENSG00000128050_ENST00000264221|hu_mus|hu_hu_hu_mus_True|1_18 (ssRNA) RNA: GGGAGUUCUACAGUCCGACGAUCCAGAAUUUCAAAAAUAGCUUGUGUGGCAUGACUCAUGAUGUCCACUUCAGUCUGCCCUAUAACAAGGCCAGCAAAACAGAAUUUUGCAGCAAUCAGCUGUUCCUCAGACCACUGUGGGUCCAACAGAGGAUUGAGCAUCA", "binding signal, enrichment R": 0.937}
{"BINDER": "chr6:36760027:36760028:-_ENSMUSG00000029838_ENSMUST00000101534|mus_hu|FALSE|FALSE (ssRNA) RNA: GGGAGUUCUACAGUCCGACGAUCGUACCCGGCUCGCUGCAGCUCCUGCUUGGGCCGCUGCUGCUCUCCCCGCCUUCUGGACGGAUGACUCACUGGUCUCUUUCUUCCCCUCUCUCCACUUUGGAUUUUCCUCUGCUCUGGGGCCAACAGAGGAUUGAGCAUCA", "binding signal, enrichment R": 0.683}
{"BINDER": "chr11:87793471:87793472:-_ENSMUSG00000020483_ENSMUST00000020775|mus_mus|mus_mus_mus_hu_False|38_98 (ssRNA) RNA: GGGAGUUCUACAGUCCGACGAUCUGGACUUGAAAAUAAAAAAAAUAGCUGGAUCCCCCACCCCCCCACAUUGUCAACCCUACACGAGAGUUUUGAAUGAUUCAUAAGAAAAUCAGCAGCUCAAACGGCAAUGACCACCCCACCCAACAGAGGAUUGAGCAUCA", "binding signal, enrichment R": 4.29}
{"BINDER": "chr11:87793471:87793472:-_ENSMUSG00000020483_ENSMUST00000020775|mus_mus|mus_mus_mus_hu_False|1_98 (ssRNA) RNA: GGGAGUUCUACAGUCCGACGAUCUGGACUUGAAAAUAAAAAAAAUAGCUGGAUCCCCCACCCCCCCACAUUGUCAACCCUACACGAGAGUUUUGAAGGCGACUCAUGAAAAUCAGCAGCUCAAACGGCAAUGACCACCCACCCCAACAGAGGAUUGAGCAUCA", "binding signal, enrichment R": 3.94}
{"BINDER": "chr21:40768814:40768815:+_ENSG00000182093_ENST00000333781|hu_mus|motif|central (ssRNA) RNA: GGGAGUUCUACAGUCCGACGAUCCUGGCCUUCCCCUCAGCUGAAAGGGUGGAGAACGAUAGCCACAACUUUGUUACAGACGGAAAUCCAACAGGUGAUUCCAAUUCCACCUGCUACUCGAGUAGGAAAGGCUACCAGGCGGUCCAACAGAGGAUUGAGCAUCA", "binding signal, enrichment R": 1.05}
{"BINDER": "chr11:87793471:87793472:-_ENSMUSG00000020483_ENSMUST00000020775|mus_mus|mus_mus_mus_hu_False|58_98 (ssRNA) RNA: GGGAGUUCUACAGUCCGACGAUCUGGACUUGAAAAUAAAAAAAAUAGCUGGAUCCCCCACCCCCCCACAUUGUCAACCCUAUGCGAGAGUUUUGAAGGCGACUCAUGAAAAUCAGCAGCUCAAACGGCAAUGACCACCCCACCCAACAGAGGAUUGAGCAUCA", "binding signal, enrichment R": 3.93}
{"BINDER": "chr12:96663167:96663168:+_ENSG00000111145_ENST00000228741|hu_mus|FALSE|FALSE (ssRNA) RNA: GGGAGUUCUACAGUCCGACGAUCUCUGGGUCCACAGGAGAAUCAUGGUAGUUGGAAGAAAAGGAAUCAACAGGCAGACUUACAGUCAUGGGAACAUUUCCAACCAGCGUUUAUAGUUUAAAGGUCGACAGAAGGUCAUCUUGUCAACAGAGGAUUGAGCAUCA", "binding signal, enrichment R": 1.6}
{"BINDER": "chr11:87793471:87793472:-_ENSMUSG00000020483_ENSMUST00000020775|mus_mus|mus_mus_mus_hu_False|1_108 (ssRNA) RNA: GGGAGUUCUACAGUCCGACGAUCUGGGGGCUGGGGAAAAAGAAUAAGCUGGAUCCCCCACCCCCCCACAUUGUCAACCCUACACGAGAGUUUUGAAGGCGACUCAUGAAAAUCAGCAGCUCAAACGGCAAUGACCACCCACCCCAACAGAGGAUUGAGCAUCA", "binding signal, enrichment R": 1.72}
{"BINDER": "chr1:235505951:235505952:+_ENSG00000152904_ENST00000391855|hu_mus|motif|central (ssRNA) RNA: GGGAGUUCUACAGUCCGACGAUCUUUGUAGGCUUUAGCUUCAAGCUCUCUAAGAGUGUGUCGAGUGUAUGCAAAAGAACCGGCAUCCUCCAGGUACUGCACACAAUACUUUUUAAUAUCUAUAUUCUCUGUUCUCUGGCGCAGCAACAGAGGAUUGAGCAUCA", "binding signal, enrichment R": 1.14}
{"BINDER": "chr11:87793471:87793472:-_ENSMUSG00000020483_ENSMUST00000020775|mus_mus|mus_mus_mus_hu_False|38_88 (ssRNA) RNA: GGGAGUUCUACAGUCCGACGAUCUGGACUUGAAAAUAAAAGAAUAAGCUAGAUUUCCCACCCCCCCACAUUGUCAACCCUACACGAGAGUUUUGAAUGAUUCAUAAGAAAAUCAGCAGCUCAAACGGCAAUGACCACCCCACCCAACAGAGGAUUGAGCAUCA", "binding signal, enrichment R": 1.97}
{"BINDER": "25284998_25285535_556_3pUTR_ENSMUSG00000054793_ENSMUST00000068023|mouse|control|control (ssRNA) RNA: GGGAGUUCUACAGUCCGACGAUCCACGCUCCACACCUUGCCGUUCUCCUGGCCGCUGCUCACUCCUUUCAACUCCUUGCGAUCCCGAUACCAGCGCAGGACCGCUGCGGGGCGCGACCGCGGAACCAGGCAGCUGAGUUCCACCAACAGAGGAUUGAGCAUCA", "binding signal, enrichment R": 0.858}
{"BINDER": "78791426_78796734_1209_CDS_ENSMUSG00000033088_ENSMUST00000109689|mouse|control|control (ssRNA) RNA: GGGAGUUCUACAGUCCGACGAUCACUGCCAGAAUUCUCCUUCCUCUGGCCUGCUGUGUCUCCUCGGGCUGGGGACCUGGUGGCCUUUCGAGCACUGUCAGCUCUCAGUCCCUCCUGAGGCCUCCUUGGGAUCAUCUCUGUGAGCAACAGAGGAUUGAGCAUCA", "binding signal, enrichment R": 0.647}
